experiment-notes: recombinant UMI read abundance after kanamycin selection (control-corrected) (log10(CPM+1)); higher = more efficient recombination; extreme values may be limits of the assay; sequences stand for … in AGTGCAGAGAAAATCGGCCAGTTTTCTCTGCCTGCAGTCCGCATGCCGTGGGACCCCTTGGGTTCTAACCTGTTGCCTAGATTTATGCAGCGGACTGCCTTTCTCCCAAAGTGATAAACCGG…AGGTTGGTTTCACT; site = the 11-nt donor;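 also: IS621 bridge recombinase in Escherichia coli cells against a fixed T5 target plasmid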
recombinant UMI read abundance (log10) values by entry
reported-metric: recombinant UMI read abundance (log10)

1. CTGGAAACATGGACCGGTTTTCCCGGTAATCCGTATTTGGA (site CTGGAAACTTG) ... 0
2. CCTTTACCATGGACCGGTTTTCCCGGTAATCCGTATTTGCC (site AGACCGTCTCT) ... 0.00566
3. TCCATATCATGGACCGGTTTTCCCGGTAATCCGTATTTGTC (site ACCATATCTGA) ... 0
4. GAATGGTCATGGACCGGTTTTCCCGGTAATCCGTATTTGCA (site GAATGGCCTTG) ... 0
5. ACACTATCATGGACCGGTTTTCCCGGTAATCCGTATTTGTA (site ACACTATCTTA) ... 2.98
6. GTACTAACATGGACCGGTTTTCCCGGTAATCCGTATTTGGA (site ATACTAACTTC) ... 0.569
7. CAATACGCATGGACCGGTTTTCCCGGTAATCCGTATTTGAT (site CAATACGCTAT) ... 2.03
8. CAATGTTCATGGACCGGTTTTCCCGGTAATCCGTATTTGAA (site CAATGTTCTTT) ... 2.11
9. CCCAGCTCATGGACCGGTTTTCCCGGTAATCCGTATTTGCA (site CCCAGCTCTTG) ... 2.3

* * *

experiment-notes: recombinant UMI read abundance after kanamycin selection (control-corrected) (log10(CPM+1)); higher = more efficient recombination; extreme values may be limits of the assay; sequences stand for … in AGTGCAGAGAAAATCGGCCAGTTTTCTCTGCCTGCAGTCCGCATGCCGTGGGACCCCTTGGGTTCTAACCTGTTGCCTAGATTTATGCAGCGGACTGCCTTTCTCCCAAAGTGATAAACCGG…AGGTTGGTTTCACT; site = the 11-nt donor
reported-metric: recombinant UMI read abundance (log10)

1) TCGTTAACATGGACCGGTTTTCCCGGTAATCCGTATTTGTT (site TCGTTAACTAA) ... 0.00894
2) CAGACGACATGGACCGGTTTTCCCGGTAATCCGTATTTGGG (site CAGGCGACTCC) ... 0.0123
3) ACAGGATCATGGACCGGTTTTCCCGGTAATCCGTATTTGCA (site ACAGCATCTTG) ... 2.01
4) CTACTCTCATGGACCGGTTTTCCCGGTAATCCGTATTTGTA (site CTACTCTCTTA) ... 3.26
5) TCAGAAACATGGACCGGTTTTCCCGGTAATCCGTATTTGCG (site TCAGAAACTCG) ... 1.86

* * *

recombinant UMI read abundance (log10) values by entry
experiment-notes: recombinant UMI read abundance after kanamycin selection (control-corrected) (log10(CPM+1)); higher = more efficient recombination; extreme values may be limits of the assay; sequences stand for … in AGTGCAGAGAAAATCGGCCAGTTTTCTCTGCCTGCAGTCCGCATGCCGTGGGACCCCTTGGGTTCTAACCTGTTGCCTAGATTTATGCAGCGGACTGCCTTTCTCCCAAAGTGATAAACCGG…AGGTTGGTTTCACT; site = the 11-nt donor
reported-metric: recombinant UMI read abundance (log10)

1) TACGGATCATGGACCGGTTTTCCCGGTAATCCGTATTTGTA (site TACGGATCTTA) ... 0.989
2) CCTTAGCCATGGACCGGTTTTCCCGGTAATCCGTATTTGCC (site CCATAGCCTGG) ... 0
3) CGGTTGCCATGGACCGGTTTTCCCGGTAATCCGTATTTGGC (site CGGTTGCCTGC) ... 0
4) CCGAAAACATGGACCGGTTTTCCCGGTAATCCGTATTTGCT (site GCGAAAACTAG) ... 0
5) CCAAAGGCATGGACCGGTTTTCCCGGTAATCCGTATTTGGC (site CCAAAGGCTGC) ... 0
6) CCCGAGCCATGGACCGGTTTTCCCGGTAATCCGTATTTGCC (site CCCTAGCCTGG) ... 0
7) CTGGTACCATGGACCGGTTTTCCCGGTAATCCGTATTTGCT (site CTGATACCTAG) ... 0
8) GGACTGGCATGGACCGGTTTTCCCGGTAATCCGTATTTGGT (site GGATTGGCTAC) ... 0.0234
9) TGGCCGGCATGGACCGGTTTTCCCGGTAATCCGTATTTGGC (site TGCCCGGCTGC) ... 0
10) CGATTATCATGGACCGGTTTTCCCGGTAATCCGTATTTGCA (site CGATTATCTTG) ... 2.39
11) ATTGAGACATGGACCGGTTTTCCCGGTAATCCGTATTTGAT (site ATTGAGACTAC) ... 0.217
12) GTGCATGCATGGACCGGTTTTCCCGGTAATCCGTATTTGGT (site GTGCATGCTAT) ... 1.47
13) AGAGCTTCATGGACCGGTTTTCCCGGTAATCCGTATTTGGA (site AGAGCTTCTTC) ... 2.31
14) AGCTCTGCATGGACCGGTTTTCCCGGTAATCCGTATTTGGG (site AGCTCAGCTCC) ... 0.0199
15) CTCAGATCATGGACCGGTTTTCCCGGTAATCCGTATTTGCA (site CTCAGATCTTG) ... 1.82
16) TGTACGCCATGGACCGGTTTTCCCGGTAATCCGTATTTGTA (site TGTACGCCTTA) ... 0.00598
17) GGGGCACCATGGACCGGTTTTCCCGGTAATCCGTATTTGCA (site GGGGCACCTTT) ... 0.0161
18) CCCGGGCCATGGACCGGTTTTCCCGGTAATCCGTATTTGCA (site CCCGGCCCTTG) ... 0

* * *

experiment-notes: recombinant UMI read abundance after kanamycin selection (control-corrected) (log10(CPM+1)); higher = more efficient recombination; extreme values may be limits of the assay; sequences stand for … in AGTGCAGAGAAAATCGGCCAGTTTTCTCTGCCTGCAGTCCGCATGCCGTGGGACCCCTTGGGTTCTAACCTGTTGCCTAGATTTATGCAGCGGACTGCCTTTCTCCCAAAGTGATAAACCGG…AGGTTGGTTTCACT; site = the 11-nt donor
Threshold rule: recombinant UMI read abundance (log10) greater than or equal to 0.4 is class 1; below that, class 0.

1. AGGAGTACATGGACCGGTTTTCCCGGTAATCCGTATTTGAC (site AGGATTACTGT) ... class 0
2. CGGACATCATGGACCGGTTTTCCCGGTAATCCGTATTTGCA (site CGGACATCTCG) ... class 0
3. CGCTCGACATGGACCGGTTTTCCCGGTAATCCGTATTTGTT (site CGTTCGACTAA) ... class 0
4. AGGAAGACATGGACCGGTTTTCCCGGTAATCCGTATTTGCC (site AGGAAGACTAG) ... class 1
5. GGAGTGTCATGGACCGGTTTTCCCGGTAATCCGTATTTGGT (site GGAGTGTCTAC) ... class 1
6. TGTCCAACATGGACCGGTTTTCCCGGTAATCCGTATTTGTA (site TGTCCAACTTA) ... class 0
7. TCAGAAACATGGACCGGTTTTCCCGGTAATCCGTATTTGCG (site TCAGAGACTCG) ... class 1
8. AGGAATACATGGACCGGTTTTCCCGGTAATCCGTATTTGCA (site AGGAAAACTTG) ... class 1
9. AAACTAACATGGACCGGTTTTCCCGGTAATCCGTATTTGCG (site AAACTAACTCG) ... class 1
10. TAGTTGGCATGGACCGGTTTTCCCGGTAATCCGTATTTGTG (site TAATTGGCTCA) ... class 0
11. GCCACTCCATGGACCGGTTTTCCCGGTAATCCGTATTTGTA (site GCCACACCTTA) ... class 0
12. TCCAATTCATGGACCGGTTTTCCCGGTAATCCGTATTTGCC (site TCCAAGTCTGG) ... class 0
13. CAATACTCATGGACCGGTTTTCCCGGTAATCCGTATTTGAA (site CAATGCTCTTT) ... class 0
14. CCGTTTACATGGACCGGTTTTCCCGGTAATCCGTATTTGAT (site CCGTTTACTAG) ... class 0
15. TATATGGCATGGACCGGTTTTCCCGGTAATCCGTATTTGTT (site TATATGGCTAA) ... class 0
16. AGAGAGACATGGACCGGTTTTCCCGGTAATCCGTATTTGCA (site AGGAAGACTTG) ... class 1
17. CGATTATCATGGACCGGTTTTCCCGGTAATCCGTATTTGAC (site CTAGTATCTGT) ... class 1
18. CTCCTTACATGGACCGGTTTTCCCGGTAATCCGTATTTGAG (site CTCCATACTCT) ... class 0
